Biological target: acetylcholine receptor
Test: SPR, AchR immobilized on chip, peptide 10 uM
For each entry below, report its Binding affinity (RU) value.
Give bare numbers, in RU.

binder: RVLSK [5mer-182]
readout-unit: RU
Binding affinity (RU): 70
//
binder: KQLLK [5mer-461]
readout-unit: RU
Binding affinity (RU): 74
//
binder: KGLRK [5mer-156]
readout-unit: RU
Binding affinity (RU): 85
//
binder: KSLCK [5mer-163]
readout-unit: RU
Binding affinity (RU): 61
//
binder: KQRSK [5mer-470]
readout-unit: RU
Binding affinity (RU): 57

I would be grateful if you could provide Binding affinity (RU) for each of the following entries.
1. RRRRR [5mer-152]
2. RVFTK [5mer-151]
3. RWRSR [5mer-190]
4. KSRRR [5mer-469]

56
66
84
69

// for each binder in input: emit Binding affinity (RU)
1. KSFRK [5mer-192]
2. RRFCK [5mer-475]

75
56

Batch of 3 binders: report Binding affinity (RU) for each.
1. RQYYK [5mer-479]
2. KSYSR [5mer-489]
3. RWQLK [5mer-175]

1: 70; 2: 63; 3: 63

Data provenance is patent US20250011363A1.
